Target: human FGFR2b on KATO III cells (human, UniProt P21802)
Sequence (P21802 22-377): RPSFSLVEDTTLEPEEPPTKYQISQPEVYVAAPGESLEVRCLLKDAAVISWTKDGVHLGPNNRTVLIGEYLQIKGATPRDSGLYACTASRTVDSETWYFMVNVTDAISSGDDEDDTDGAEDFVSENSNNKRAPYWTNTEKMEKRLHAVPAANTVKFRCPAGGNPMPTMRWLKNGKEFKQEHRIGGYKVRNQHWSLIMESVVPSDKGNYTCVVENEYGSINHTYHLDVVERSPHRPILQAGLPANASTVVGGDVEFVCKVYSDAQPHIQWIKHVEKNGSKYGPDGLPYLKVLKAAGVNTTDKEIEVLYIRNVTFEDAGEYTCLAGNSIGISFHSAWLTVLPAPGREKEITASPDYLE
Assay: FACS
endpoint label: EC50 (µg/mL)
Kindly provide the numeric value in µg/mL only, without the unit symbol.

Examples with their reported EC50 follow.
3D7 (antibody, V domains shown) VH: QVQLQQSGAELVKPGASVKMSCKASGYTFSFYNMHWVKRTPGRGLEWIGLIYPDNGDTSYNQKFKGKATLTADTSSSTAYMQLSSLTSEDSAVYYCARGGLDYWGQGTSLTVSS VL: EIVLTQSPASLAVSLGQRATISCKASQSVDYDGDSYMNWYQQKPGQPPKLLIYGISNRFSGVPDRFSGSGSGTDFTLKISTIKPEDLGMYYCLQGTHQPYTFGGGTKLEIK    0.259
3E1 (antibody, V domains shown) VH: QVQLQQPGAEVVKPGASVKMSCKASGYTFTDYYIHWVKQTPGQGLEWIGAIYPDNGDTSYNQKFKVKATLTADKSSSTAYMQLSSLTSEDSAVYYCARAFTYWGQGTLVTVSA VL: DILITQSPASLSASVGETVTITCGASENIYGALNWYQRKQGKSPQLLIYGATNLADGMSSRFSGSGSGRQYSLKISSLHPDDVATYYCQNVLSTPYTFGGGTKLEIK    0.132

Consider now this further binder.
Query: Could you tell me which EC50 is on file for 3E3 (antibody, V domains shown) VH: QVQLQQPGAVLVKPGASVRMSCKASGYTFPYYNVHWVKRTPGQGLEWIGLIYPDNGDTSYNQKFTGKATLTADTSSSTAYMQLSSLTSEDSAVYYCARGGLDYWGQGTTLTVSA VL: DVQITQSPASLSASVGETVTITCGASENIYGALNWYQRKQGKSPQLLIYGATNLADGMSSRFSGSGSGRQYSLKISSLHPDDVATYYCQNVLSTPYTFGGGTKLEIK ?
Response: 0.376
